Entries and their measured SPOT peptide array binding signal intensity follow.
Experimental System: SpSla1-D1-D2
Experiment Summary: SPOT peptide array binding signal intensity (averaged, normalized) (arbitrary units (background-subtracted, floor 0; scale differs between SH3 domains)); higher = stronger binding of the SH3 domain to the peptide
Quantity Kind: SPOT peptide array binding signal intensity

Binder: KNRKNLPTIPIRLSG
Qualifier Sign: =
Obs Value: 1490

Binder: QDKEGIPPDQQRLIF
Qualifier Sign: ≤
Obs Value: 0

Binder: HVRRSILALPLGVLL
Qualifier Sign: =
Obs Value: 2

Binder: FFRRSELYLPNSSKA
Qualifier Sign: ≤
Obs Value: 0

Binder: RKNRAPPQRPRFNRE
Qualifier Sign: =
Obs Value: 48

Binder: SHRLWLYAAPKRPKT
Qualifier Sign: =
Obs Value: 3

Binder: LKVTPGRRAPTISKI
Qualifier Sign: =
Obs Value: 4

Binder: FVLRYYILIPHEQWD
Qualifier Sign: =
Obs Value: 1

Binder: MARRRLPDRPPNGIG
Qualifier Sign: =
Obs Value: 393

Binder: LKHGWKPLRPIKLIS
Qualifier Sign: ≤
Obs Value: 0

Binder: NIKVLLNPKLGKPVK
Qualifier Sign: ≤
Obs Value: 0

Binder: NPTKSPPPPPSPSTM
Qualifier Sign: ≤
Obs Value: 0

Binder: GSKSGPPPRPKKPST
Qualifier Sign: =
Obs Value: 5
